Assay: Human HepG2 cell viability assay in 384 well format
Format: toxicity, cell-based
Set-up: dose 125 nL, time 70.5 hour; concentration not given beside the values
Details: HepG2 cells, read-out: Inhibition
Let's look at some compounds and their measured cytotoxicity at 70.5 h.
Property Label: cytotoxicity at 70.5 h (%)

>  <Compound>
CCC(C)NC(=O)Cc1c(C)nc2c(c1C)c(=O)[nH]n2C (stereo not drawn)

>  <Unit>
%

>  <Observed Measurement>
-8.46

$$$$
>  <Compound>
CC(=O)NCC(=O)N1CCN(C)c2ncccc2C1

>  <Unit>
%

>  <Observed Measurement>
-11.3

$$$$
>  <Compound>
Cc1cc(C(=O)N(C)Cc2cnn(C)c2C)n(C)n1

>  <Unit>
%

>  <Observed Measurement>
14

$$$$
>  <Compound>
Cc1cc(C(=O)N2CCCC(c3nccn3C)C2)cc(S(N)(=O)=O)c1C (stereo not drawn)

>  <Unit>
%

>  <Observed Measurement>
-5.68

$$$$
>  <Compound>
CCCNC(=O)COc1cc(C)c2c(C)nn(-c3ccccc3)c2n1

>  <Unit>
%

>  <Observed Measurement>
-4.53

$$$$
>  <Compound>
Cc1ccc(NC2CCCN(C3Cc4ccccc4C3)C2)nn1 (stereo not drawn)

>  <Unit>
%

>  <Observed Measurement>
-4.1

$$$$
>  <Compound>
c1cc(CNCCc2cn3ccccc3n2)c2c(c1)OCCCO2

>  <Unit>
%

>  <Observed Measurement>
-6.72

$$$$
>  <Compound>
Cc1noc(C)c1CN1CCn2cc(CN3CCCCC3)nc2C1

>  <Unit>
%

>  <Observed Measurement>
-3.15

$$$$
>  <Compound>
CC(NCc1cnc(N2CCN(C)CC2)nc1)c1ccc(F)cc1 (stereo not drawn)

>  <Unit>
%

>  <Observed Measurement>
-6.26

$$$$
>  <Compound>
CC(C)C(Nc1nc(C(F)(F)F)nc2ccccc12)C(=O)O (stereo not drawn)

>  <Unit>
%

>  <Observed Measurement>
-1.94

$$$$
>  <Compound>
CNC(=O)[C@H]1C[C@H]2OCC[C@H]2N(Cc2ccc(C)o2)C1

>  <Unit>
%

>  <Observed Measurement>
3.85

$$$$
>  <Compound>
CCN(CC)CCC(=O)N1CCc2c(nc(N(C)C)nc2N(C)C)C1

>  <Unit>
%

>  <Observed Measurement>
29.3

$$$$
>  <Compound>
Cc1c(C(=O)NCC2CCCO2)nnn1-c1cccc2c1CCN(C)C2 (stereo not drawn)

>  <Unit>
%

>  <Observed Measurement>
19.8

$$$$
>  <Compound>
O=C(c1coc2ccccc12)N1CCS(=O)(=O)CC1

>  <Unit>
%

>  <Observed Measurement>
-5.47

$$$$
>  <Compound>
CC1CCN(S(=O)(=O)c2cccnc2)c2ccccc2S1 (stereo not drawn)

>  <Unit>
%

>  <Observed Measurement>
-3.73

$$$$
>  <Compound>
OCCn1cc(CN2CCN(CCOc3ccccc3)CC2)cn1

>  <Unit>
%

>  <Observed Measurement>
-16

$$$$
>  <Compound>
Cc1cc(CN2CCCC2)cc(Oc2ccc3c(c2)CC(CN)O3)c1 (stereo not drawn)

>  <Unit>
%

>  <Observed Measurement>
-11.7

$$$$
>  <Compound>
COCCNC(=O)NCCc1cccc(OC)c1O

>  <Unit>
%

>  <Observed Measurement>
0.934

$$$$
>  <Compound>
CCCn1c(C)c(CC(=O)N[C@H](C)C(=O)OC)c2c1CC(C)(C)CC2=O

>  <Unit>
%

>  <Observed Measurement>
-0.686

$$$$
>  <Compound>
N#Cc1cccc(N2CCC3(CCC(=O)N(CC(N)=O)C3)CC2)n1

>  <Unit>
%

>  <Observed Measurement>
-8.42

$$$$
>  <Compound>
CCCn1cc(NC(=O)c2cccnc2O)ccc1=O

>  <Unit>
%

>  <Observed Measurement>
-1.07

$$$$
>  <Compound>
CCNC(=O)C(C)NC(=O)Nc1ccccc1Cl (stereo not drawn)

>  <Unit>
%

>  <Observed Measurement>
-6.58

$$$$
>  <Compound>
CCN1CCN(c2ccc(CNC(=O)c3c(C)noc3C)cn2)CC1

>  <Unit>
%

>  <Observed Measurement>
21.7

$$$$
>  <Compound>
CC(C)c1nnc2n1CCN(C(=O)c1ccc(S(C)(=O)=O)cc1)C2

>  <Unit>
%

>  <Observed Measurement>
-5.36

$$$$
>  <Compound>
Cc1ccc(C(C(=O)NCCc2nc(C)cc(=O)[nH]2)N(C)C)cc1 (stereo not drawn)

>  <Unit>
%

>  <Observed Measurement>
7.05

$$$$
>  <Compound>
CN(C)C(=O)NC1COC2(CCN(Cc3ccccc3)CC2)C1 (stereo not drawn)

>  <Unit>
%

>  <Observed Measurement>
27.7

$$$$
>  <Compound>
c1csc(C(CNCc2cccc3c2OCO3)N2CCOCC2)c1 (stereo not drawn)

>  <Unit>
%

>  <Observed Measurement>
-13.2

$$$$
>  <Compound>
CN(C)CC(C)(O)CNC(=O)Nc1sc2ccccc2c1Cl (stereo not drawn)

>  <Unit>
%

>  <Observed Measurement>
8.3

$$$$
>  <Compound>
CC(NC(=O)N(C)CCCOc1ccccc1)c1nncn1C (stereo not drawn)

>  <Unit>
%

>  <Observed Measurement>
-5.85

$$$$
>  <Compound>
COC(=O)c1cccc(C(=O)N2CCN(c3ccccc3F)CC2)n1

>  <Unit>
%

>  <Observed Measurement>
28.8

$$$$
>  <Compound>
CCOc1cc(Cl)c(CN2CCC3(CCCNC3=O)C2)cc1OC (stereo not drawn)

>  <Unit>
%

>  <Observed Measurement>
-5.69

$$$$
>  <Compound>
CC(Oc1ccc(OCc2ncc(C(C)C)o2)cc1)C(N)=O (stereo not drawn)

>  <Unit>
%

>  <Observed Measurement>
-8.33

$$$$
>  <Compound>
Cc1ccccc1OCC1CCCN(C(=O)CNC(=O)N(C)C)C1 (stereo not drawn)

>  <Unit>
%

>  <Observed Measurement>
16.8

$$$$
>  <Compound>
COc1ccc(S(=O)(=O)NCCCc2nnc3nc(C)cc(C)n23)cc1

>  <Unit>
%

>  <Observed Measurement>
-7.77

$$$$
>  <Compound>
O=C1CCc2cc(S(=O)(=O)NC(=O)c3ccc4c(c3)OCO4)ccc2N1

>  <Unit>
%

>  <Observed Measurement>
-15.2

$$$$
>  <Compound>
CNc1nc(CNC(=O)Nc2cccc(OC)c2)cs1

>  <Unit>
%

>  <Observed Measurement>
-0.727

$$$$
>  <Compound>
CN(Cc1nnnn1C1CC1)CC1COc2ccccc2O1 (stereo not drawn)

>  <Unit>
%

>  <Observed Measurement>
-0.558

$$$$
>  <Compound>
CC(C)NC(=O)[C@H]1C[C@@H]2[C@@H](C1)OCCN2Cc1ccccn1

>  <Unit>
%

>  <Observed Measurement>
-5.2

$$$$
>  <Compound>
CN1CCN(c2nc(-c3cnn(C)c3)cs2)CC1

>  <Unit>
%

>  <Observed Measurement>
-6.42

$$$$
>  <Compound>
N#Cc1cc(F)c(NCc2ccc(F)cc2)c(F)c1

>  <Unit>
%

>  <Observed Measurement>
15.5

$$$$
>  <Compound>
CNC(=O)C1CCN(c2cc(C3CCNCC3)nc(C)n2)C1 (stereo not drawn)

>  <Unit>
%

>  <Observed Measurement>
-19.2

$$$$
>  <Compound>
CN(Cc1ncc[nH]1)C(=O)C(C)(C)NC(=O)c1cccs1

>  <Unit>
%

>  <Observed Measurement>
-3.2

$$$$
>  <Compound>
O=C(Cc1ccon1)NC1CC2(CCC2)Oc2ccccc21 (stereo not drawn)

>  <Unit>
%

>  <Observed Measurement>
4.31

$$$$
>  <Compound>
CCn1cncc1Cn1cccc(C(F)(F)F)c1=O

>  <Unit>
%

>  <Observed Measurement>
2.51

$$$$
>  <Compound>
Cc1ccc(C(C)N(C)Cc2nc3c(cnn3C)c(=O)[nH]2)cc1 (stereo not drawn)

>  <Unit>
%

>  <Observed Measurement>
-17.2

$$$$
>  <Compound>
O=C(COCCOc1ccccc1)NC1CCN(C(=O)C2CC2)CC1

>  <Unit>
%

>  <Observed Measurement>
14.4

$$$$
>  <Compound>
F[C@@H]1CN(Cc2cccnc2)C[C@@H]1OCc1nc2ccccc2[nH]1

>  <Unit>
%

>  <Observed Measurement>
-3.79

$$$$
>  <Compound>
Cc1csc(Nc2nccnc2C2CCCN2CC(N)=O)n1 (stereo not drawn)

>  <Unit>
%

>  <Observed Measurement>
11

$$$$

* * *

Test: Human HepG2 cell viability assay in 384 well format
Type: toxicity, cell-based
Set-up: dose 125 nL, time 70.5 hour; concentration not given beside the values
Conditions: HepG2 cells, read-out: Inhibition

>  <Compound>
Cc1ccc(C(=O)NS(C)(=O)=O)cc1-n1cccc1

>  <cytotoxicity at 70.5 h>
-6.32%

$$$$
>  <Compound>
Cc1cc(CNc2cc(Cl)ccc2OCCS(C)(=O)=O)no1

>  <cytotoxicity at 70.5 h>
13.3%

$$$$
>  <Compound>
CNc1ncccc1C(=O)N1CCN(Cc2ccc(C)cc2)C(=O)C1C (centres undefined)

>  <cytotoxicity at 70.5 h>
-13.8%

$$$$
>  <Compound>
CC(C)COc1cncc(N2CCCC(CC(N)=O)C2)n1 (centres undefined)

>  <cytotoxicity at 70.5 h>
-1.79%

$$$$
>  <Compound>
O=C(NCc1n[nH]c2c1CCCCC2)c1cnn2c1CCCC2

>  <cytotoxicity at 70.5 h>
-12.2%

$$$$
>  <Compound>
c1ccc(NCc2cn3c(n2)CN(Cc2cccnc2)CC3)nc1

>  <cytotoxicity at 70.5 h>
-10%

$$$$
>  <Compound>
Cc1ccc(-c2ccnc(N(C)CC3CCCN3C)n2)c(C)n1 (centres undefined)

>  <cytotoxicity at 70.5 h>
16.3%

$$$$
>  <Compound>
CNC(=O)c1cc2c(nc1NCC1CC1)CCN(CC1CC1)CC2

>  <cytotoxicity at 70.5 h>
-26.7%

$$$$
>  <Compound>
CC(=O)NCc1cccc(-n2ccnc2-c2cccc(C(=O)O)c2)c1

>  <cytotoxicity at 70.5 h>
16.6%

$$$$
>  <Compound>
Cn1cc(CN2C[C@@H]3CN(C(=O)c4cccn4C)CCO[C@@H]3C2)cn1

>  <cytotoxicity at 70.5 h>
-2.93%

$$$$
>  <Compound>
CC(C)CNC(=O)Cn1ccc2ccccc21

>  <cytotoxicity at 70.5 h>
-0.252%

$$$$
>  <Compound>
CCC(O)CN1CCN(C(=O)C2(c3ccc(C)c(OC)c3)CC2)CC1 (centres undefined)

>  <cytotoxicity at 70.5 h>
4.09%

$$$$
>  <Compound>
Cn1cc(-c2cnc3n2CCC32CCN(S(=O)(=O)C3CC3)CC2)cn1

>  <cytotoxicity at 70.5 h>
-9.03%

$$$$
>  <Compound>
O=C(O)[C@@H]1CN(Cc2c[nH]c(CC3CCCC3)n2)C[C@H]1c1ccncc1

>  <cytotoxicity at 70.5 h>
-4.68%

$$$$
>  <Compound>
Cc1ncc(-c2ccnc(N3CCC[C@@H]3CO)n2)c(-c2cccnc2)n1

>  <cytotoxicity at 70.5 h>
-3.34%

$$$$
>  <Compound>
Cc1cccc(N2CCCC3(C2)CN(c2nncs2)CCO3)c1 (centres undefined)

>  <cytotoxicity at 70.5 h>
16.1%

$$$$
>  <Compound>
CCS(=O)(=O)N1CCCN(CCCOC)CC1

>  <cytotoxicity at 70.5 h>
-6.15%

$$$$
>  <Compound>
CC(C)c1cc(NCC(O)c2ccc(F)cc2)n2nccc2n1 (centres undefined)

>  <cytotoxicity at 70.5 h>
0.769%

$$$$
>  <Compound>
c1ccc(Cc2noc(CN3CCOC(Cn4cccn4)C3)n2)cc1 (centres undefined)

>  <cytotoxicity at 70.5 h>
-3.64%

$$$$
>  <Compound>
Cc1nnc(SCCCNc2cc(C3CC3)ncn2)s1

>  <cytotoxicity at 70.5 h>
22.4%

$$$$
>  <Compound>
NC(=O)CN(Cc1ncc(-c2ccc(F)cc2)o1)C1CCCC1

>  <cytotoxicity at 70.5 h>
-14.2%

$$$$
>  <Compound>
Cc1ccc(C(=O)N2CCN(CCCSCC#N)CC2)o1

>  <cytotoxicity at 70.5 h>
-3.91%

$$$$
>  <Compound>
CCOc1ncccc1C(=O)NCCN(CC)C1CC1

>  <cytotoxicity at 70.5 h>
0.543%

$$$$
>  <Compound>
Cc1ccc(CCNC(=O)Nc2cc(C(F)(F)F)c[nH]c2=O)o1

>  <cytotoxicity at 70.5 h>
-4.56%

$$$$
